// data source = patent US20260125378A2

# system under test: Full length DGKζ (in-house protein M1-V929) (Homo sapiens, UniProt Q13574)
# Construct: His (N); TEV site (N)
# Sequence (Q13574 1-929 isoform Q13574-4): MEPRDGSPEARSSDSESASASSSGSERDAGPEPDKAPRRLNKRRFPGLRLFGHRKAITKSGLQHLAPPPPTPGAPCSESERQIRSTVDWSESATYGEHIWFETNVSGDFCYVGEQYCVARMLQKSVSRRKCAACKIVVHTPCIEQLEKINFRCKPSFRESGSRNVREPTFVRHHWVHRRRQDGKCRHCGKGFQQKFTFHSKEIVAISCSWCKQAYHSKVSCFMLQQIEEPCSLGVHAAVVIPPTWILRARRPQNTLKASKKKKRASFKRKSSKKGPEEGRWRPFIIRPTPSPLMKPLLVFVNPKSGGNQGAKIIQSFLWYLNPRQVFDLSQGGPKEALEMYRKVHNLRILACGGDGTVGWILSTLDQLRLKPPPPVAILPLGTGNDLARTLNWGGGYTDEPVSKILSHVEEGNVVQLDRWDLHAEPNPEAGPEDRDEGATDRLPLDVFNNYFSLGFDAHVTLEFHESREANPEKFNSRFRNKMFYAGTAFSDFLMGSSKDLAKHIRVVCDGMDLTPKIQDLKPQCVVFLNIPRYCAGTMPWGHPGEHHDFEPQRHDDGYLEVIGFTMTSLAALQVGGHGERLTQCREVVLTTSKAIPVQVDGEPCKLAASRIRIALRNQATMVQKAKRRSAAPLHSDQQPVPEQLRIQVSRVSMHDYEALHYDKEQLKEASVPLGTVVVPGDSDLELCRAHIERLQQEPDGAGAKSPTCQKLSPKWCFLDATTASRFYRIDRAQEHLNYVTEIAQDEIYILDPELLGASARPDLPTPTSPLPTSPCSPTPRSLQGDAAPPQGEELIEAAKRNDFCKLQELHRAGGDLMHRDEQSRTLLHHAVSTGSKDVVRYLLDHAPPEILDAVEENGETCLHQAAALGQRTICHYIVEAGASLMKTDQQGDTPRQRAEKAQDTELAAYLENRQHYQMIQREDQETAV
# assay summary: Biochemical DGK IC50 assay (ADP-Glo, lipid micelle substrate), DGKζ
# experimental conditions: 1 hour preincubation, 1 hour reaction, room temperature
endpoint label: log10 IC50 (log10 of the value in nM)

• CC(c1cc2ccccc2cn1)N1C[C@H](C)N(c2nc(=O)n(C)c3c2nc(CC#N)n3C)C[C@H]1C (stereo partly shown) = 2.25
• CCn1c(CC#N)nc2c(N3C[C@@H](C)N(C(C)c4ccc5c(c4)OC4(CCC4)O5)C[C@@H]3C)nc(=O)n(C)c21 (mixture of isomers) [Compound A169] = 1.49
• CCn1c(CC#N)nc2c(N3C[C@@H](C)N(C(C)c4ccc5c(n4)C(F)(F)CCO5)C[C@@H]3C)nc(=O)n(C)c21 (stereo partly shown) = 1.57
• CCn1c(CC#N)nc2c(N3C[C@@H](C)N(C(C)c4cccc(C(F)(F)F)n4)C[C@@H]3C)nc(=O)n(C)c21 (single isomer, unassigned) [Compound A118b] = 2.01
• CCn1c(CC#N)nc2c(N3C[C@@H](C)N(C(C)c4cc(F)c5c(n4)OC(C)(C)CO5)C[C@@H]3C)nc(=O)n(C)c21 (mixture of isomers) [Compound A163] = 1.68
• CCn1c(CC#N)nc2c(N3C[C@@H](C)N(C(C)c4ccc5c(c4)OC(C)(C)CC5)C[C@@H]3C)nc(=O)n(C)c21 (single isomer, unassigned) [Compound A94a] = 0.78
• CC(c1ccc2c(c1)OC(C)(C)CO2)N1C[C@H](C)N(c2nc(=O)n(C)c3c2nc(CC#N)n3C)C[C@H]1C (single isomer, unassigned) [Compound A59a] = 2.38
• CCn1c(CC#N)nc2c(N3C[C@@H](C)N(C(C)c4ccc5c(c4)OC(C)(C)O5)C[C@@H]3C)nc(=O)n(C)c21 (single isomer, unassigned) [Compound A85b] = 1.15
• CC(c1ccc2c(c1)OC(F)(F)O2)N1C[C@H](C)N(c2nc(=O)n(C)c3c2nc(CC#N)n3C)C[C@H]1C (stereo partly shown) = 1.95
• CC(c1ccc2nccnc2c1)N1C[C@H](C)N(c2cc(=O)n(C)c3sc(CC#N)nc23)C[C@H]1C (mixture of isomers) [Compound A194] = 0.85
• CCn1c(CC#N)nc2c(N3C[C@@H](C)N(C(C)c4ccc5c(c4)OC(C)(C)C5)C[C@@H]3C)nc(=O)n(C)c21 (stereo partly shown) = 1.04
• CCn1c(CC#N)nc2c(N3C[C@@H](C)N(C(C)c4ccc5c(n4)OC(C)(C)CO5)C[C@@H]3C)c(F)c(=O)n(C)c21 (stereo partly shown) = 1.79
• CC(c1ccc(C(F)(F)F)cn1)N1C[C@H](C)N(c2nc(=O)n(C)c3c2nc(CC#N)n3C)C[C@H]1C (single isomer, unassigned) [Compound A148b] = 2.25
• CCn1c(CC#N)nc2c(N3C[C@@H](C)N(C(C)c4ccc5c(c4)CN(C)C5=O)C[C@@H]3C)nc(=O)n(C)c21 (stereo partly shown) = 3.63
• CCn1c(CC#N)nc2c(N3C[C@@H](C)N(C(C)c4ccc5c(c4Cl)OC(C)(C)O5)C[C@@H]3C)nc(=O)n(C)c21 (single isomer, unassigned) [Compound A172a] = 2.23
• CCn1c(CC#N)nc2c(N3C[C@@H](C)N(C(C)c4ccc(F)cc4C(F)(F)F)C[C@@H]3C)nc(=O)n(C)c21 (single isomer, unassigned) [Compound A35a] = 3.44
• CC(c1cc(F)c2c(c1)OC(C)(C)CO2)N1C[C@H](C)N(c2nc(=O)n(C)c3c2nc(CC#N)n3C)C[C@H]1C (single isomer, unassigned) [Compound A68b] = 2.30
• COc1cc(F)ccc1C(C)N1C[C@H](C)N(c2nc(=O)n(C)c3c2nc(CC#N)n3C)C[C@H]1C (single isomer, unassigned) [Compound A24a] = 2.99
• COC[C@H]1CN(C(C)c2ccc3ncc(C)nc3c2)[C@H](C)CN1c1nc(=O)n(C)c2c1nc(CC#N)n2C (single isomer, unassigned) [Compound A13b] = 1.73
